Study system: UniProtKB Q66K64
Protocol text: HTRF competition assay, binary interaction between compounds and DCAF15
Particulars: competition with Alexa Fluor 647 tracer, His-tagged DCAF15 complex

# Compound, IC50
measured = [
    ("N#Cc1ccc(Oc2ccc(S(=O)(=O)Nc3ccc(Cl)c4c(Cl)c[nH]c34)cc2)cc1 [Compound 37]", "> 100 µM"),
    ("O=C(N[C@H]1CCc2ccccc21)c1ccc(S(=O)(=O)Nc2ccc(Cl)c3c(Cl)c[nH]c23)c(F)c1 [Compound 155]", "> 100 µM"),
    ("CN(C)C(=O)C[C@H](NC(=O)c1cccc(S(=O)(=O)Nc2ccc(Cl)c3c(Cl)c[nH]c23)c1F)c1ccccc1 [Compound 196]", "1 to 10 µM"),
    ("CNC(=O)c1ccc(F)c(S(=O)(=O)Nc2ccc(Cl)c3c(Cl)c[nH]c23)c1 [Compound 237]", "10 to 100 µM"),
    ("CCS(=O)(=O)CCNC(=O)c1cccc(S(=O)(=O)Nc2ccc(Cl)c3c(Cl)c[nH]c23)c1F [Compound 190]", "1 to 10 µM"),
    ("CN(C)C(=O)C[C@H](NC(=O)c1ccc(S(=O)(=O)Nc2ccc(Cl)c3c(Cl)c[nH]c23)c(F)c1)c1ccccc1 [Compound 197]", "1 to 10 µM"),
    ("Cn1cc(CCOc2cccc(S(=O)(=O)Nc3ccc(Cl)c4c(Cl)c[nH]c34)c2)c2ccccc21 [Compound 92]", "> 100 µM"),
    ("O=S(=O)(Nc1ccc(Cl)c2c(Cl)c[nH]c12)c1ccc(O[C@H]2CC[C@H](N3CCOCC3)CC2)cc1 [Compound 17]", "10 to 100 µM"),
    ("CC(C)CNC(=O)c1ccc(S(=O)(=O)Nc2ccc(Cl)c3c(Cl)c[nH]c23)c(F)c1 [Compound 240]", "1 to 10 µM"),
    ("O=S(=O)(Nc1ccc(Cl)c2c(Cl)c[nH]c12)c1ccc(OCCCc2ccc3c(c2)OCO3)cc1 [Compound 110]", "> 100 µM"),
    ("O=S(=O)(Nc1ccc(Cl)c2c(Cl)c[nH]c12)c1ccc(OCC2COC2)cc1 [Compound 40]", "> 100 µM"),
    ("NC[C@H]1CC[C@H](Oc2ccc(S(=O)(=O)Nc3ccc(Cl)c4c(Cl)c[nH]c34)cc2)CC1 [Compound 15]", "1 to 10 µM"),
    ("CC(C)c1cc(S(=O)(=O)Nc2ccc(Cl)c3c(Cl)c[nH]c23)ccc1OCc1ccccc1 [Compound 233]", "10 to 100 µM"),
    ("CCS(=O)(=O)CCNC(=O)c1ccc(S(=O)(=O)Nc2ccc(Cl)c3c(Cl)c[nH]c23)c(F)c1 [Compound 191]", "< 1 µM"),
    ("Cc1nc(-c2ccc(COc3ccc(S(=O)(=O)Nc4ccc(Cl)c5c(Cl)c[nH]c45)cc3)cc2)no1 [Compound 64]", "> 100 µM"),
]

* * *

Study system: DCAF15 (Homo sapiens)
Protocol text: HTRF competition assay, binary interaction between compounds and DCAF15
Particulars: competition with Alexa Fluor 647 tracer, His-tagged DCAF15 complex
The molecules listed here are annotated with their IC50.
Experimental readout: IC50

# Sample smiles, Experimental readout, Assay value
records = [
    ("CCOc1cc(N2CCC[C@H](COc3ccc(S(=O)(=O)Nc4ccc(Cl)c5c(Cl)c[nH]c45)cc3)C2)ncn1", "IC50", "> 100 µM"),
    ("NC(=O)c1cc(Cl)cc(S(=O)(=O)Nc2ccc(Cl)c3c(Cl)c[nH]c23)c1", "IC50", "1 to 10 µM"),
    ("Cc1cc(CNC(=O)c2ccc(S(=O)(=O)Nc3ccc(Cl)c4c(Cl)c[nH]c34)c(F)c2)nn1C", "IC50", "1 to 10 µM"),
    ("O=S(=O)(Nc1ccc(Cl)c2c(Cl)c[nH]c12)c1cccc(O[C@H]2CC[C@H](N3CCOCC3)CC2)c1", "IC50", "1 to 10 µM"),
    ("N[C@@H]1CCC[C@@H](Oc2cccc(S(=O)(=O)Nc3ccc(Cl)c4c(Cl)c[nH]c34)c2)C1", "IC50", "10 to 100 µM"),
    ("O=C(c1ccc(S(=O)(=O)Nc2ccc(Cl)c3c(Cl)c[nH]c23)c(F)c1)N1CC(N2CCc3ccccc32)C1", "IC50", "10 to 100 µM"),
    ("O=C(c1cccc(S(=O)(=O)Nc2ccc(Cl)c3c(Cl)c[nH]c23)c1F)N1CC(N2CCc3ccccc32)C1", "IC50", "1 to 10 µM"),
    ("CN(C)C(=O)c1cccc(S(=O)(=O)Nc2ccc(Cl)c3c(Cl)c[nH]c23)c1", "IC50", "1 to 10 µM"),
    ("O=S(=O)(Nc1ccc(Cl)c2c(Cl)c[nH]c12)c1cccc(O[C@H]2CC[C@H](OCc3ccccc3)CC2)c1", "IC50", "> 100 µM"),
    ("CN1C[C@@H](NC(=O)c2cccc(S(=O)(=O)Nc3ccc(Cl)c4c(Cl)c[nH]c34)c2F)CCC1=O", "IC50", "< 1 µM"),
    ("CC(C)CNC(=O)c1ccc(S(=O)(=O)Nc2ccc(Cl)c3c(Cl)c[nH]c23)cc1", "IC50", "> 100 µM"),
    ("Cc1ccc(CCNC(=O)c2ccc(S(=O)(=O)Nc3ccc(Cl)c4c(Cl)c[nH]c34)c(F)c2)o1", "IC50", "1 to 10 µM"),
    ("O=C(NCC1CCN(CCCc2ccccc2)CC1)c1ccc(S(=O)(=O)Nc2ccc(Cl)c3c(Cl)c[nH]c23)c(F)c1", "IC50", "< 1 µM"),
    ("CCN(CC)C(=O)c1ccc(CNC(=O)c2cccc(S(=O)(=O)Nc3ccc(Cl)c4c(Cl)c[nH]c34)c2F)cc1", "IC50", "1 to 10 µM"),
    ("O=C(NCCCc1ccc(Cl)cc1)c1ccc(S(=O)(=O)Nc2ccc(Cl)c3c(Cl)c[nH]c23)c(F)c1", "IC50", "> 100 µM"),
]

* * *

Study system: DCAF15 (Homo sapiens)
Protocol text: HTRF competition assay, binary interaction between compounds and DCAF15
Particulars: competition with Alexa Fluor 647 tracer, His-tagged DCAF15 complex
compounds and their reported IC50
Experimental readout: IC50

# Sample smiles, Assay value
records = [
    ("CCS(=O)(=O)CCOc1ccc(S(=O)(=O)Nc2ccc(Cl)c3c(Cl)c[nH]c23)cc1", "1 to 10 µM"),
    ("O=S(=O)(Nc1ccc(Cl)c2c(Cl)c[nH]c12)c1ccc(Oc2ccc(Br)cc2)cc1", "> 100 µM"),
    ("Cc1ccnc(CNC(=O)c2ccc(S(=O)(=O)Nc3ccc(Cl)c4c(Cl)c[nH]c34)c(F)c2)c1", "1 to 10 µM"),
    ("Cc1ccnc([C@@H](NC(=O)c2cccc(S(=O)(=O)Nc3ccc(Cl)c4c(Cl)c[nH]c34)c2F)C2CC2)c1", "1 to 10 µM"),
    ("O=C(N[C@@H]1CCC[C@@H](Oc2ccc(S(=O)(=O)Nc3ccc(Cl)c4c(Cl)c[nH]c34)cc2)C1)OCc1ccccc1", "> 100 µM"),
    ("O=C(NC[C@H]1Cc2ccccc21)c1ccc(S(=O)(=O)Nc2ccc(Cl)c3c(Cl)c[nH]c23)c(F)c1", "> 100 µM"),
    ("O=S(=O)(Nc1ccc(Cl)c2c(Cl)c[nH]c12)c1cccc(OC2CCC3(CC2)CNC3)c1", "10 to 100 µM"),
    ("COCCOCCCNC(=O)c1ccc(S(=O)(=O)Nc2ccc(Cl)c3c(Cl)c[nH]c23)c(F)c1", "1 to 10 µM"),
    ("Cc1ccc(CCNC(=O)c2cccc(S(=O)(=O)Nc3ccc(Cl)c4c(Cl)c[nH]c34)c2F)o1", "1 to 10 µM"),
    ("Cc1ccccc1Oc1ccccc1CNC(=O)c1cccc(S(=O)(=O)Nc2ccc(Cl)c3c(Cl)c[nH]c23)c1F", "1 to 10 µM"),
    ("CN1CC2(CC(Oc3ccc(S(=O)(=O)Nc4ccc(Cl)c5c(Cl)c[nH]c45)cc3)C2)C1", "1 to 10 µM"),
    ("Cc1ccccc1Oc1ccccc1CNC(=O)c1ccc(S(=O)(=O)Nc2ccc(Cl)c3c(Cl)c[nH]c23)c(F)c1", "> 100 µM"),
    ("CC(C)C[C@H](NC(=O)c1ccc(S(=O)(=O)Nc2ccc(Cl)c3c(Cl)c[nH]c23)c(F)c1)c1nc2ccccc2[nH]1", "1 to 10 µM"),
    ("COCCOCCCNC(=O)c1cccc(S(=O)(=O)Nc2ccc(Cl)c3c(Cl)c[nH]c23)c1F", "1 to 10 µM"),
    ("O=C(OCc1ccccc1)N1C[C@@H]2[C@@H](COc3ccc(S(=O)(=O)Nc4ccc(Cl)c5c(Cl)c[nH]c45)cc3)[C@@H]2C1", "> 100 µM"),
    ("O=c1oc2ccccc2n1CCCOc1ccc(S(=O)(=O)Nc2ccc(Cl)c3c(Cl)c[nH]c23)cc1", "> 100 µM"),
    ("O=C(c1cccc(S(=O)(=O)Nc2ccc(Cl)c3c(Cl)c[nH]c23)c1)N1CCOCC1", "1 to 10 µM"),
    ("COCCOc1ccc(S(=O)(=O)Nc2ccc(Cl)c3c(Cl)c[nH]c23)cc1Br", "1 to 10 µM"),
    ("O=S(=O)(Nc1ccc(Cl)c2c(Cl)c[nH]c12)c1cccc(OC[C@@H]2CCCNC2)c1", "10 to 100 µM"),
    ("Cc1ccnc([C@@H](NC(=O)c2ccc(S(=O)(=O)Nc3ccc(Cl)c4c(Cl)c[nH]c34)c(F)c2)C2CC2)c1", "1 to 10 µM"),
    ("O=C(NCCOCC1CC1)c1cccc(S(=O)(=O)Nc2ccc(Cl)c3c(Cl)c[nH]c23)c1F", "1 to 10 µM"),
    ("O=C(c1cccc(S(=O)(=O)Nc2ccc(Cl)c3c(Cl)c[nH]c23)c1F)N1CCC(c2ccnc(C(F)F)c2)CC1", "< 1 µM"),
    ("Cc1nc2c(n1C)CCN(C(=O)c1cccc(S(=O)(=O)Nc3ccc(Cl)c4c(Cl)c[nH]c34)c1F)C2", "< 1 µM"),
    ("O=C(c1ccc(S(=O)(=O)Nc2ccc(Cl)c3c(Cl)c[nH]c23)c(F)c1)N1CCC(Oc2cccnc2)CC1", "1 to 10 µM"),
    ("Cc1ccnc(CNC(=O)c2cccc(S(=O)(=O)Nc3ccc(Cl)c4c(Cl)c[nH]c34)c2F)c1", "1 to 10 µM"),
    ("O=C(NCCc1ccccn1)c1cccc(S(=O)(=O)Nc2ccc(Cl)c3c(Cl)c[nH]c23)c1F", "< 1 µM"),
    ("O=C(c1cccc(S(=O)(=O)Nc2ccc(Cl)c3c(Cl)c[nH]c23)c1F)N1CCC(Oc2cccnc2)CC1", "< 1 µM"),
    ("CN(C)C(=O)c1ccc(CCNC(=O)c2ccc(S(=O)(=O)Nc3ccc(Cl)c4c(Cl)c[nH]c34)c(F)c2)cc1", "1 to 10 µM"),
    ("O=S(=O)(Nc1ccc(Cl)c2c(Cl)c[nH]c12)c1cccc(OCCC[C@@H]2CCCN2)c1", "> 100 µM"),
]
